system: NCI-H647; test: relative viability (nuclei count vs DMSO), 5 days (fraction); higher = more cells survive; details: first compound 0.4 µM
REPORTED PROPERTY: relative viability

MOLECULE | STUDY TARGET | VALUE
C[C@@H]1CN(CC(=O)Nc2ccc3c(c2)Cc2cccc(-c4cc(=O)cc(N5CCOCC5)o4)c2S3)C[C@H](C)O1 + CCNC(=O)c1noc(-c2cc(C(C)C)c(O)cc2O)c1-c1ccc(CN2CCOCC2)cc1 [Luminespib] (partner 0.01 µM) | NCI-H647 | 0.152
Clc1ccc(Nc2nnc(Cc3ccncc3)c3ccccc23)cc1 [Vatalanib] + CCNC(=O)c1noc(-c2cc(C(C)C)c(O)cc2O)c1-c1ccc(CN2CCOCC2)cc1 [Luminespib] (partner 0.01 µM) | NCI-H647 | 0.169
C[C@@H]1CN(CC(=O)Nc2ccc3c(c2)Cc2cccc(-c4cc(=O)cc(N5CCOCC5)o4)c2S3)C[C@H](C)O1 + N=C(N)NC(=N)NCCc1ccccc1 [Phenformin] (partner 250 µM) | NCI-H647 | 0.606

----------
Listing: relative viability of selected molecules
tested on: PC-3 [JPC-3]; assay: relative viability (nuclei count vs DMSO), 5 days (fraction); higher = more cells survive; settings: first compound 0.01 µM

MOLECULE | relative viability
CC(C)Oc1cc(Nc2nc(N[C@@H](C)c3ccc(F)cn3)ncc2Cl)n[nH]1 [AZ23] + CC(=O)Nc1cccc(-n2c(=O)n(C3CC3)c(=O)c3c(Nc4ccc(I)cc4F)n(C)c(=O)c(C)c32)c1 [Trametinib] (partner 0.02 µM) | 0.612
CC(C)Oc1cc(Nc2nc(N[C@@H](C)c3ccc(F)cn3)ncc2Cl)n[nH]1 [AZ23] + CS(=O)(=O)N1CCN(Cc2cc3nc(-c4cccc5[nH]ncc45)nc(N4CCOCC4)c3s2)CC1 [Pictilisib] (partner 1 µM) | 0.807
CC(C)Oc1cc(Nc2nc(N[C@@H](C)c3ccc(F)cn3)ncc2Cl)n[nH]1 [AZ23] + COc1cccc2cc(-c3nc([C@H]4CC[C@H](C(=O)O)CC4)n4ncnc(N)c34)[nH]c12 [OSI-027] (partner 0.5 µM) | 0.857
CC(C)Oc1cc(Nc2nc(N[C@@H](C)c3ccc(F)cn3)ncc2Cl)n[nH]1 [AZ23] + COc1cc2c(Oc3ccc(NC(=O)C4(C(=O)Nc5ccc(F)cc5)CC4)cc3F)ccnc2cc1OCCCN1CCOCC1 [Foretinib] (partner 0.25 µM) | 1.23
CC(C)Oc1cc(Nc2nc(N[C@@H](C)c3ccc(F)cn3)ncc2Cl)n[nH]1 [AZ23] + CC(=O)c1c(C)c2cnc(Nc3ccc(N4CCNCC4)cn3)nc2n(C2CCCC2)c1=O [Palbociclib] (partner 0.5 µM) | 0.552

----------
system: NCI-H661; assay: relative viability (nuclei count vs DMSO), 5 days (fraction); higher = more cells survive; details: first compound 0.3162 µM
Listing: relative viability of selected molecules

MOLECULE | relative viability
CC(C)Oc1cc(Nc2nc(N[C@@H](C)c3ccc(F)cn3)ncc2Cl)n[nH]1 [AZ23] + CS(=O)(=O)N1CCN(Cc2cc3nc(-c4cccc5[nH]ncc45)nc(N4CCOCC4)c3s2)CC1 [Pictilisib] (partner 1 µM) | 0.423
CC(C)Oc1cc(Nc2nc(N[C@@H](C)c3ccc(F)cn3)ncc2Cl)n[nH]1 [AZ23] + CC(=O)Nc1cccc(-n2c(=O)n(C3CC3)c(=O)c3c(Nc4ccc(I)cc4F)n(C)c(=O)c(C)c32)c1 [Trametinib] (partner 0.02 µM) | 0.547

----------
test system: NCI-H2342; assay: relative viability (nuclei count vs DMSO), 5 days (fraction); higher = more cells survive; settings: first compound 0.4 µM
REPORTED PROPERTY: relative viability

COMPOUND | REPORTED PROPERTY | VALUE
C[C@@H]1CN(CC(=O)Nc2ccc3c(c2)Cc2cccc(-c4cc(=O)cc(N5CCOCC5)o4)c2S3)C[C@H](C)O1 + CCNC(=O)c1noc(-c2cc(C(C)C)c(O)cc2O)c1-c1ccc(CN2CCOCC2)cc1 [Luminespib] (partner 0.01 µM) | relative viability | 0.722
C[C@@H]1CN(CC(=O)Nc2ccc3c(c2)Cc2cccc(-c4cc(=O)cc(N5CCOCC5)o4)c2S3)C[C@H](C)O1 + COc1cccc2cc(-c3nc([C@H]4CC[C@H](C(=O)O)CC4)n4ncnc(N)c34)[nH]c12 [OSI-027] (partner 0.5 µM) | relative viability | 0.52
COc1cc(N2CCC(C(N)=O)CC2)ccc1Nc1nc(N)c(Cl)c(Nc2ccccc2S(=O)(=O)C(C)C)n1 [HG-5-88-01] + Cc1cc(Nc2cc(N3CCN(C)CC3)nc(Sc3ccc(NC(=O)C4CC4)cc3)n2)n[nH]1 [Tozasertib] (partner 0.1 µM) | relative viability | 0.574
Clc1ccc(Nc2nnc(Cc3ccncc3)c3ccccc23)cc1 [Vatalanib] + NC(=O)Nc1cc(-c2cccc(F)c2)sc1C(=O)N[C@H]1CCCNC1 [AZD7762] (partner 0.2 µM) | relative viability | 0.378

----------
system: A549; assay: relative viability (nuclei count vs DMSO), 5 days (fraction); higher = more cells survive; conditions: first compound 0.01 µM
REPORTED PROPERTY: relative viability

COMPOUND | STUDY TARGET | REPORTED PROPERTY | VALUE
CC(C)Oc1cc(Nc2nc(N[C@@H](C)c3ccc(F)cn3)ncc2Cl)n[nH]1 [AZ23] + Cc1nc(NC(=O)N2CCC[C@H]2C(N)=O)sc1-c1ccnc(C(C)(C)C(F)(F)F)c1 [Alpelisib] (partner 2 µM) | A549 | relative viability | 0.738
CC(C)Oc1cc(Nc2nc(N[C@@H](C)c3ccc(F)cn3)ncc2Cl)n[nH]1 [AZ23] + N=C(N)NC(=N)NCCc1ccccc1 [Phenformin] (partner 250 µM) | A549 | relative viability | 0.181
CC(C)Oc1cc(Nc2nc(N[C@@H](C)c3ccc(F)cn3)ncc2Cl)n[nH]1 [AZ23] + Nc1ncn([C@H]2C[C@H](O)[C@@H](CO)O2)c(=O)n1 [Decitabine] (partner 2 µM) | A549 | relative viability | 0.3

----------
test system: PC-14; experiment: relative viability (nuclei count vs DMSO), 5 days (fraction); higher = more cells survive; details: first compound 0.1265 µM

COMPOUND | relative viability
C[C@@H]1CN(CC(=O)Nc2ccc3c(c2)Cc2cccc(-c4cc(=O)cc(N5CCOCC5)o4)c2S3)C[C@H](C)O1 + CC1(C)CCC(c2ccc(Cl)cc2)=C(CN2CCN(c3ccc(C(=O)NS(=O)(=O)c4ccc(N[C@H](CCN5CCOCC5)CSc5ccccc5)c(S(=O)(=O)C(F)(F)F)c4)cc3)CC2)C1 [Navitoclax] (partner 0.5 µM) | 0.987

----------
system: NCI-H520; experiment: relative viability (nuclei count vs DMSO), 5 days (fraction); higher = more cells survive; details: first compound 0.3162 µM

COMPOUND | relative viability
CC(C)Oc1cc(Nc2nc(N[C@@H](C)c3ccc(F)cn3)ncc2Cl)n[nH]1 [AZ23] + O=C(CCCCCCC(=O)Nc1ccccc1)NO [Vorinostat] (partner 1 µM) | 0.609
CC(C)Oc1cc(Nc2nc(N[C@@H](C)c3ccc(F)cn3)ncc2Cl)n[nH]1 [AZ23] + COc1cccc2cc(-c3nc([C@H]4CC[C@H](C(=O)O)CC4)n4ncnc(N)c34)[nH]c12 [OSI-027] (partner 0.5 µM) | 0.278
CC(C)Oc1cc(Nc2nc(N[C@@H](C)c3ccc(F)cn3)ncc2Cl)n[nH]1 [AZ23] + COc1cc2c(Oc3ccc(NC(=O)C4(C(=O)Nc5ccc(F)cc5)CC4)cc3F)ccnc2cc1OCCCN1CCOCC1 [Foretinib] (partner 0.25 µM) | 0.677
CC(C)Oc1cc(Nc2nc(N[C@@H](C)c3ccc(F)cn3)ncc2Cl)n[nH]1 [AZ23] + Cc1cc(Nc2cc(N3CCN(C)CC3)nc(Sc3ccc(NC(=O)C4CC4)cc3)n2)n[nH]1 [Tozasertib] (partner 0.1 µM) | 0.475
CC(C)Oc1cc(Nc2nc(N[C@@H](C)c3ccc(F)cn3)ncc2Cl)n[nH]1 [AZ23] + C[C@@H](Oc1cc(-c2cnn(C3CCNCC3)c2)cnc1N)c1c(Cl)ccc(F)c1Cl [Crizotinib] (partner 1 µM) | 0.732
CC(C)Oc1cc(Nc2nc(N[C@@H](C)c3ccc(F)cn3)ncc2Cl)n[nH]1 [AZ23] + N=C(N)NC(=N)NCCc1ccccc1 [Phenformin] (partner 250 µM) | 0.23

----------
Listing: relative viability of selected compounds
test system: UMC-11; test: relative viability (nuclei count vs DMSO), 5 days (fraction); higher = more cells survive; conditions: first compound 0.8 µM
REPORTED PROPERTY: relative viability

COMPOUND | VALUE
CCCCCCCCCCCC1=C(O)C(=O)C=C(O)C1=O [Embelin] + Cc1nc(Nc2ncc(C(=O)Nc3c(C)cccc3Cl)s2)cc(N2CCN(CCO)CC2)n1 [Dasatinib] (partner 0.075 µM) | 0.48
CCCCCCCCCCCC1=C(O)C(=O)C=C(O)C1=O [Embelin] + Cc1cc(Nc2cc(N3CCN(C)CC3)nc(Sc3ccc(NC(=O)C4CC4)cc3)n2)n[nH]1 [Tozasertib] (partner 0.1 µM) | 0.199
CCCCCCCCCCCC1=C(O)C(=O)C=C(O)C1=O [Embelin] + Nc1nc2[nH]cc(CCc3ccc(C(=O)N[C@@H](CCC(=O)O)C(=O)O)cc3)c2c(=O)[nH]1 [Pemetrexed] (partner 0.2 µM) | 0.849
CCCCCCCCCCCC1=C(O)C(=O)C=C(O)C1=O [Embelin] + CC1(C)CCC(c2ccc(Cl)cc2)=C(CN2CCN(c3ccc(C(=O)NS(=O)(=O)c4ccc(N[C@H](CCN5CCOCC5)CSc5ccccc5)c(S(=O)(=O)C(F)(F)F)c4)cc3)CC2)C1 [Navitoclax] (partner 0.5 µM) | 0.32
CCCCCCCCCCCC1=C(O)C(=O)C=C(O)C1=O [Embelin] + COc1cccc2cc(-c3nc([C@H]4CC[C@H](C(=O)O)CC4)n4ncnc(N)c34)[nH]c12 [OSI-027] (partner 0.5 µM) | 0.492
